Experiment: AUC (0 to 24 hrs) in rat at 1 mg/kg, iv
Type: ADME, organism-based
Set-up: time < 24 hr, dose 1 mg/kg, route intravenous
Conditions: plasma
parameter_measured: AUC(0-t) at 24 h (ng·h/mL)
Could you give me the number in ng·h/mL? Just the number is fine.

Record O=C(O)c1ccc(NC(=O)[C@H](CC2CCCC2)n2cnc(S(=O)(=O)C3CCC3)c2)nc1 , field AUC(0-t) at 24 h: 176

====

Test: Volume of distribution at steady state in rat at 1 mg/kg, iv
Format: ADME, organism-based
Set-up: dose 1 mg/kg, route intravenous
Conditions: in vivo, read-out: Vdss
parameter_measured: Vd (L/kg)
Supply the numeric figure in L/kg, leaving out any unit text.

The value of Vd measured for the molecule O=C(O)c1ccc(NC(=O)[C@H](CC2CCCC2)n2cnc(S(=O)(=O)C3CCC3)c2)nc1 turned out to be 0.8

====

Target: OATP1B3 (Homo sapiens, UniProt Q9NPD5)
Sequence (Q9NPD5 whole entry): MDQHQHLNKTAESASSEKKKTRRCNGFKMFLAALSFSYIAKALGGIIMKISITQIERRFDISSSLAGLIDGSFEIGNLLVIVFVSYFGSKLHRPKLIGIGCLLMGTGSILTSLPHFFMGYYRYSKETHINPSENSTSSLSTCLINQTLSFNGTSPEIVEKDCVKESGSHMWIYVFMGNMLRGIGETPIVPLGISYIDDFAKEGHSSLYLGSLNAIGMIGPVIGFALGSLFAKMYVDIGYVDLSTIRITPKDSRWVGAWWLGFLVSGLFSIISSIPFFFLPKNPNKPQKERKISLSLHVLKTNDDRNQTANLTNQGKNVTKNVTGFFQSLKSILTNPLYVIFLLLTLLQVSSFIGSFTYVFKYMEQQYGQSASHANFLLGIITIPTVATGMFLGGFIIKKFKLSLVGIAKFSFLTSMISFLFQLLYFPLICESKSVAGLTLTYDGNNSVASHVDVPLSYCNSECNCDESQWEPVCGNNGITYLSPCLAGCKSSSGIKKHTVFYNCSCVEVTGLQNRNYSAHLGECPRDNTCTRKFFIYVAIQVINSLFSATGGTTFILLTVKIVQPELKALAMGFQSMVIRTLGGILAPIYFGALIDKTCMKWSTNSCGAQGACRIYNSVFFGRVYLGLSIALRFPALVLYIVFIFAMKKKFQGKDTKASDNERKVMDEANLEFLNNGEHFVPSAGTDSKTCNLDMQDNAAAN
Experiment: Activity at OATP1B3 (unknown origin) transfected in HEK cells assessed as transporter-mediated cellular uptake relative to mock-transfected HEK cells
Assay type: ADME, cell-based
Conditions: HEK293 cells transfected with OATP1B3, read-out: FC
parameter_measured: uptake ratio
I'd appreciate a reply containing only the number, no unit.

Lab book: uptake ratio of O=C(O)c1ccc(NC(=O)[C@H](CC2CCCC2)n2cnc(S(=O)(=O)C3CCC3)c2)nc1 noted as 2.3

====

Assay: Apparent permeability in RRCK cells at pH 6.5
Type: ADME, cell-based, Canis lupus familiaris, MDCKII-LE
Conditions: dog, MDCK
parameter_measured: Papp (×10⁻⁶ cm/s)
# output: bare number, implied unit ×10⁻⁶ cm/s

What the record says about O=C(O)c1ccc(NC(=O)[C@H](CC2CCCC2)n2cnc(S(=O)(=O)C3CCC3)c2)nc1 : Papp is 1.3

====

Assay: Apparent permeability in RRCK cells at pH 7.4
Assay type: ADME, cell-based, Canis lupus familiaris, MDCKII-LE
Settings: dog, MDCK
parameter_measured: Papp (×10⁻⁶ cm/s)
Report the figure in ×10⁻⁶ cm/s without appending any unit label.

Recorded Papp (molecule O=C(O)c1ccc(NC(=O)[C@H](CC2CCCC2)n2cnc(S(=O)(=O)C3CCC3)c2)nc1 ): 2

====

Assay: Cmax in rat at 5 mg/kg, po
Type: ADME, organism-based
Set-up: dose 5 mg/kg, route oral
Conditions: in vivo
parameter_measured: Cmax (ng/mL)
Only the number, expressed in ng/mL, is required.

// sample O=C(O)c1ccc(NC(=O)[C@H](CC2CCCC2)n2cnc(S(=O)(=O)C3CCC3)c2)nc1 , its Cmax was 2.5

====

Assign logD to each entry below.
Experiment: Lipophilicity, log D of the compound at pH 7.4
Assay type: physicochemical
Conditions: buffer
Answer with the value's number alone.

Measured logD of O=C(O)c1ccc(NC(=O)[C@H](CC2CCOCC2)n2cnc(S(=O)(=O)C3CCC3)c2)nc1 : -1.55

For O=C(O)c1ccc(NC(=O)[C@H](CC2CCCC2)n2cnc(C(F)(F)F)c2)nc1 [PF-04991532] the molecule record lists logD as 0.68

Form: molecule = O=C(O)c1ccc(NC(=O)[C@H](CC2CCCCC2)n2cnc(S(=O)(=O)C3CC3)c2)nc1 ; logD = -0.25

O=C(O)c1ccc(NC(=O)[C@H](CC2CCCC2)n2cnc(S(=O)(=O)C3CCC3)c2)nc1 yielded logD of -0.1

====

Assay: Apparent permeability across RRCK cells
Type: ADME, cell-based, Canis lupus familiaris, MDCKII-LE
Details: dog, MDCK
Hi there, I'd appreciate the recorded Papp for every entry that follows.
Give the quantity in ×10⁻⁶ cm/s, number only.

Entry under test: O=C(O)c1ccc(NC(=O)[C@H](CC2CCCCC2)n2cnc(S(=O)(=O)C3CC3)c2)nc1 . Its Papp was 0.5

For record O=C(O)c1ccc(NC(=O)[C@H](CC2CCCCC2)n2cnc(S(=O)(=O)C3CCC3)c2)nc1 the listed Papp is 0.3

Record O=C(O)c1ccc(NC(=O)[C@H](CC2CCCC2)n2cnc(S(=O)(=O)C3CCC3)c2)nc1 . Reported Papp: 0.5

Per the records, this compound ( O=C(O)c1ccc(NC(=O)[C@H](CC2CCOCC2)n2cnc(S(=O)(=O)C3CCC3)c2)nc1 ) has Papp equal to 0.9

# Papp (compound: O=C(O)c1ccc(NC(=O)[C@H](CC2CCOCC2)n2cnc(S(=O)(=O)C3CC3)c2)nc1 ) is 0.9

Kindly note the recorded Papp for O=C(O)c1ccc(NC(=O)[C@H](CC2CCCC2)n2cnc(S(=O)(=O)C3CC3)c2)nc1 , which is 0.6

====

Target: Hexokinase-4 (Rattus norvegicus, UniProt P17712)
Sequence (P17712 whole entry): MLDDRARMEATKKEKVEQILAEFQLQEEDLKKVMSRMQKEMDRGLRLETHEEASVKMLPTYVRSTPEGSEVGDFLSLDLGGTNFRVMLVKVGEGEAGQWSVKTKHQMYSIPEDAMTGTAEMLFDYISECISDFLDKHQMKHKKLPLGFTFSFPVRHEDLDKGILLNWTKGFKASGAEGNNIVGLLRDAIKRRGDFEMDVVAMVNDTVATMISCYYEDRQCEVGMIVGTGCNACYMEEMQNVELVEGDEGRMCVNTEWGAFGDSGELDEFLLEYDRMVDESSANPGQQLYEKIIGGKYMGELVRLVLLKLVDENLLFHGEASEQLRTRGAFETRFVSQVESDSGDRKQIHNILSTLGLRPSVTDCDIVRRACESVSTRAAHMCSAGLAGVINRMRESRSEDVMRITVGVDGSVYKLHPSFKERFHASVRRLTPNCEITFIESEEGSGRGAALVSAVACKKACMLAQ
Test: Activation of glucokinase in rat INS-1 cells assessed as glucose-stimulated insulin secretion
For each of the compounds below, state its pEC50.
Answer as the number alone; pEC50 is minus log10 of concentration in mol/L.

Value sought: pEC50, system Hexokinase-4 (Rattus norvegicus, UniProt P17712), item O=C(O)c1ccc(NC(=O)[C@H](CC2CCCC2)n2cnc(S(=O)(=O)C3CC3)c2)nc1 . Result: 4.59

Tested system Hexokinase-4 (Rattus norvegicus, UniProt P17712); pEC50 recorded for O=C(O)c1ccc(NC(=O)[C@H](CC2CCCC2)n2cnc(S(=O)(=O)C3CCC3)c2)nc1 was 3.76

====

Molecular target: OATP1B1 (Homo sapiens, UniProt Q9Y6L6)
Sequence (Q9Y6L6 whole entry): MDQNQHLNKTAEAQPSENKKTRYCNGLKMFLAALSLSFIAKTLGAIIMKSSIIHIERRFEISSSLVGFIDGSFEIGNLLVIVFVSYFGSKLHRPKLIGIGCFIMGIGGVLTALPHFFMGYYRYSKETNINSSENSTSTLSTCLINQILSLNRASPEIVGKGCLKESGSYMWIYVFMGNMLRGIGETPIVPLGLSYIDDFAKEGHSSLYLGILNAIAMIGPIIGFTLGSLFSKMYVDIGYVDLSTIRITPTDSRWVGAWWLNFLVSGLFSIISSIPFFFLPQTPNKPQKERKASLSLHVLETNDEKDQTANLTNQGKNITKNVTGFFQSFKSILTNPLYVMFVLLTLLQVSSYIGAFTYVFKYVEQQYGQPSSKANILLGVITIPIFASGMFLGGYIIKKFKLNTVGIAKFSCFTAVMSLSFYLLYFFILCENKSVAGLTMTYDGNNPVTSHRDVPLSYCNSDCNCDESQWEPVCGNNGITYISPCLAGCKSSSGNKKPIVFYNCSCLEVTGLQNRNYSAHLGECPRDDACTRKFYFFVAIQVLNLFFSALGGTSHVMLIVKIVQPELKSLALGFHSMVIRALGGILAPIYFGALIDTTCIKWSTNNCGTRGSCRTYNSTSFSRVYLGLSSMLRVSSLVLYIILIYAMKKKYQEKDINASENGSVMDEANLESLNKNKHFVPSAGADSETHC
Assay: Activity at OATP1B1 (unknown origin) transfected in HEK cells assessed as transporter-mediated cellular uptake relative to mock-transfected HEK cells
Type: ADME, cell-based
Settings: HEK293 cells transfected with OATP1B1, read-out: FC
parameter_measured: uptake ratio

The measured uptake ratio associated with O=C(O)c1ccc(NC(=O)[C@H](CC2CCCC2)n2cnc(S(=O)(=O)C3CCC3)c2)nc1 reads 4.1

====

Test: AUC (0 to 24 hrs) in rat at 5 mg/kg, po
Type: ADME, organism-based
Set-up: time < 24 hr, dose 5 mg/kg, route oral
Details: plasma
parameter_measured: AUC(0-t) at 24 h (ng·h/mL)
A number alone suffices; assume ng·h/mL.

In plain terms, O=C(O)c1ccc(NC(=O)[C@H](CC2CCCC2)n2cnc(S(=O)(=O)C3CCC3)c2)nc1 has a documented AUC(0-t) at 24 h of 3.4

====

Provide the recorded logD for the entries that follow.
Test: Lipophilicity, log D of the compound at pH 7.4
Format: physicochemical
Conditions: buffer

// sample O=C(O)c1ccc(NC(=O)[C@H](CC2CCCC2)n2cnc(S(=O)(=O)C3CC3)c2)nc1 , its logD was -0.2

Data point: O=C(O)c1ccc(NC(=O)[C@H](CC2CCCCC2)n2cnc(S(=O)(=O)C3CCC3)c2)nc1 ; logD = 0.15

Sample O=C(O)c1ccc(NC(=O)[C@H](CC2CCOCC2)n2cnc(S(=O)(=O)C3CC3)c2)nc1 ; logD observed: -1.85

====

Test: Oral bioavailability in dog at 5 mg/kg
Format: ADME, organism-based, Canis lupus familiaris
Conditions: in vivo
parameter_measured: bioavailability

Please fill in: bioavailability reported for O=C(O)c1ccc(NC(=O)[C@H](CC2CCCC2)n2cnc(S(=O)(=O)C3CCC3)c2)nc1 = < 5%

====

Experiment: Oral bioavailability in rat at 5 mg/kg
Type: ADME, organism-based
Conditions: in vivo
parameter_measured: bioavailability

Short answer for O=C(O)c1ccc(NC(=O)[C@H](CC2CCCC2)n2cnc(S(=O)(=O)C3CCC3)c2)nc1 : bioavailability was < 1%
